# Assayed target: T1, isoform 165 of human VEGF-A (Peprotech) (human, UniProt P15692-4 27-191)
# T1 construct: also called human VEGF165; VEGF 165
# T1 sequence (P15692 other isoform, or with tags, fused parts or gaps limits assumed): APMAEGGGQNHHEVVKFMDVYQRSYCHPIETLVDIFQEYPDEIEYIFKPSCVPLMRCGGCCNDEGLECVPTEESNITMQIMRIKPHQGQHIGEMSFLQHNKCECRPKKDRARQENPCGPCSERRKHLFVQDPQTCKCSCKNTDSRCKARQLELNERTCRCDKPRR
# Experiment summary: SPR, BIAcore-X; VEGF 165 coupled to CM5 chip; scFv injected; Langmuir 1:1
Quantity name: Kd (nM)
Reply with just the number (in nM).

Known Kd results, listed for orientation:
scFv L3H5 antibody fragment (scFv, soluble, from E. coli) scFv: QQVQLVQSGAEVKKPGESLKISCKGSGYSFTSYWIGWVRQMPGKGLEWMGIIYPGDSDTRYSPSFQGQVTISADKSISTAYLQWSSLKASDTAMYYCARLVHRYRAIWGQGTMVTVSSAPQAKSSGSGSESKVDQAVVTQEPSLTVSPGGTVTLTCASSTGAVTSGNYPNWFQQRPGQPPRALIYSTSNKHSWTPARFSGSLLGGKAALTLSGAQPEDEAEYYCRLSYDLARPVFGGGTKLTVLG: 42.1
soluble scFv 2H1 antibody fragment (scFv, from another filing) scFv: QQVQLVQSGAEVKKPGESLKISCKGSGYSFTSYWIGWVRQMPGKGLEWMGIIYPGDSDTRYSPSFQGQVTISADKSISTAYLQWSSLKASDTAMYYCARLVVRDTEIWGQGTMVTVSSAPQAKSSGSGSESKVDQAVVTQEPSLTVSPGGTVTLTCASSIGAVTSGNYPNWFQQRPGQPPRALIYSTSNKHSWTPARFSGSLLGGKAALTLSGAQPEDEAEYYCLLSYSGARPVFGGGTKLTVLGAAAGSEQKLISEEDLNSHHHHHH: 457

Now let's try a different one.
Looking up scFv L3H6 antibody fragment (scFv, soluble, from E. coli) scFv: QQVQLVQSGAEVKKPGESLKISCKGSGYSFTSYWIGWVRQMPGKGLEWMGIIYPGDSDTRYSPSFQGQVTISADKSISTAYLQWSSLKASDTAMYYCARQGTHNRKIWGQGTMVTVSSAPQAKSSGSGSESKVDQAVVTQEPSLTVSPGGTVTLTCASSTGAVTSGNYPNWFQQRPGQPPRALIYSTSNKHSWTPARFSGSLLGGKAALTLSGAQPEDEAEYYCRLSYDLARPVFGGGTKLTVLG , I found its Kd recorded as 26.1
